Assay: Metabolic stability in human liver microsomes (intrinsic clearance)
Conditions: pH 7.4
QUANTITY: CLint scaled at 1 μM (mL/min/kg)
Number in mL/min/kg, nothing else.

Data point: C[C@]12CC[C@H]3[C@@H](CCC4=CC(=O)CC[C@@]43C)[C@@H]1CC[C@@H]2O [Testosterone, reference compound] ; CLint scaled at 1 μM = 70

----------
System: MDR1 (P-gp)
Experiment: Permeability over MDR1-transfected MDCK cell monolayer
Assay type: in vitro ADME, Canine
Conditions: dog; donor and receiver chamber, MDR1-MDCK monolayer, 2 μM
QUANTITY: recovery at 150 min, 2 μM (%)
The reply should be a number in %, with the unit left off.

Noted for CC(Cc1ccc(O)cc1)NCC(O)c1cc(O)cc(O)c1 (stereo not shown) : its recovery at 150 min, 2 μM reads 109

----------
Tested on: human plasma proteins
Assay: Plasma protein binding, equilibrium dialysis
Assay type: in vitro ADME
Conditions: pH 7.4, 0.2 μM, equilibrium dialysis, 37° C., n=3, read-out: Protein binding (%) (converted)
Exam item: assign Yes to entries whose fraction unbound at 6 h, 0.2 μM is below 0.4 and No to entries at or above 0.4. Note that a value of exactly 0.4 receives No.

As a guide, the following entries are already answered.
COMPOUND	TARGET	ASSIGNED_CATEGORY
[2H]C([2H])(CCCN1C(=O)[C@@]2([2H])[C@H]3CC[C@H](C3)[C@@]2([2H])C1=O)N1CCN(c2ncccn2)CC1	human plasma proteins	Yes
[2H]C([2H])(CN1C(=O)[C@@H]2[C@@H]3CC[C@@H](C3)[C@@H]2C1=O)C([2H])([2H])C([2H])([2H])N1CCN(c2ncccn2)CC1	human plasma proteins	No
[2H]C([2H])(CCCN1C(=O)[C@@H]2[C@@H]3CC[C@@H](C3)[C@@H]2C1=O)N1CCN(c2ncccn2)CC1	human plasma proteins	No

**Query** Find out if reported fraction unbound at 6 h, 0.2 μM for [2H]C1C([2H])[C@@H]2C[C@H]1[C@@H]1C(=O)N(CCCC([2H])([2H])N3CCN(c4ncccn4)CC3)C(=O)[C@@H]12 (stereo partly drawn) is less than 0.4
**Result** No

**Query** fraction unbound at 6 h, 0.2 μM strictly < 0.4 for this compound? [2H]c1cnc(N2CCN(C([2H])([2H])CCCN3C(=O)[C@@H]4[C@H](C3=O)[C@H]3C[C@@H]4C([2H])C3[2H])CC2)nc1 (stereo partly drawn)
**Result** Yes

**Query** Report whether reported fraction unbound at 6 h, 0.2 μM is lower than 0.4 (strictly) for `[2H]c1cnc(N2CCN(C([2H])([2H])CCCN3C(=O)[C@@H]4[C@@H]5CC[C@@H](C5)[C@@H]4C3=O)CC2)nc1`
**Result** No

----------
Tested on: MDR1 (P-gp)
Assay: Permeability over MDR1-transfected MDCK cell monolayer
Format: in vitro ADME, Canine
Settings: dog, MDCK-MDR1 cell monolayer; donor and receiver chamber, MDR1-MDCK monolayer, 2 μM
QUANTITY: recovery at 150 min, 2 μM

COMPOUND	RESULT
O=C1[C@@H]2[C@H]3CC[C@H](C3)[C@@H]2C(=O)N1CCCCN1CCN(c2ncccn2)CC1 [Tandospirone]	107%

Continue with the compound presented below.
// recovery at 150 min, 2 μM lookup, compound = [2H]c1cnc(N2CCN(C([2H])([2H])CCCN3C(=O)[C@@H]4[C@@H]5CC[C@@H](C5)[C@@H]4C3=O)CC2)nc1 [Compound III] , result: 112%
